- measured_target: BRM (Homo sapiens)
- Construct: In-Cell Western Screen of BRM Degradation in SW1573 Cells; endogenous in cells; host or cells: SW1573
- Sequence (P51531 whole entry): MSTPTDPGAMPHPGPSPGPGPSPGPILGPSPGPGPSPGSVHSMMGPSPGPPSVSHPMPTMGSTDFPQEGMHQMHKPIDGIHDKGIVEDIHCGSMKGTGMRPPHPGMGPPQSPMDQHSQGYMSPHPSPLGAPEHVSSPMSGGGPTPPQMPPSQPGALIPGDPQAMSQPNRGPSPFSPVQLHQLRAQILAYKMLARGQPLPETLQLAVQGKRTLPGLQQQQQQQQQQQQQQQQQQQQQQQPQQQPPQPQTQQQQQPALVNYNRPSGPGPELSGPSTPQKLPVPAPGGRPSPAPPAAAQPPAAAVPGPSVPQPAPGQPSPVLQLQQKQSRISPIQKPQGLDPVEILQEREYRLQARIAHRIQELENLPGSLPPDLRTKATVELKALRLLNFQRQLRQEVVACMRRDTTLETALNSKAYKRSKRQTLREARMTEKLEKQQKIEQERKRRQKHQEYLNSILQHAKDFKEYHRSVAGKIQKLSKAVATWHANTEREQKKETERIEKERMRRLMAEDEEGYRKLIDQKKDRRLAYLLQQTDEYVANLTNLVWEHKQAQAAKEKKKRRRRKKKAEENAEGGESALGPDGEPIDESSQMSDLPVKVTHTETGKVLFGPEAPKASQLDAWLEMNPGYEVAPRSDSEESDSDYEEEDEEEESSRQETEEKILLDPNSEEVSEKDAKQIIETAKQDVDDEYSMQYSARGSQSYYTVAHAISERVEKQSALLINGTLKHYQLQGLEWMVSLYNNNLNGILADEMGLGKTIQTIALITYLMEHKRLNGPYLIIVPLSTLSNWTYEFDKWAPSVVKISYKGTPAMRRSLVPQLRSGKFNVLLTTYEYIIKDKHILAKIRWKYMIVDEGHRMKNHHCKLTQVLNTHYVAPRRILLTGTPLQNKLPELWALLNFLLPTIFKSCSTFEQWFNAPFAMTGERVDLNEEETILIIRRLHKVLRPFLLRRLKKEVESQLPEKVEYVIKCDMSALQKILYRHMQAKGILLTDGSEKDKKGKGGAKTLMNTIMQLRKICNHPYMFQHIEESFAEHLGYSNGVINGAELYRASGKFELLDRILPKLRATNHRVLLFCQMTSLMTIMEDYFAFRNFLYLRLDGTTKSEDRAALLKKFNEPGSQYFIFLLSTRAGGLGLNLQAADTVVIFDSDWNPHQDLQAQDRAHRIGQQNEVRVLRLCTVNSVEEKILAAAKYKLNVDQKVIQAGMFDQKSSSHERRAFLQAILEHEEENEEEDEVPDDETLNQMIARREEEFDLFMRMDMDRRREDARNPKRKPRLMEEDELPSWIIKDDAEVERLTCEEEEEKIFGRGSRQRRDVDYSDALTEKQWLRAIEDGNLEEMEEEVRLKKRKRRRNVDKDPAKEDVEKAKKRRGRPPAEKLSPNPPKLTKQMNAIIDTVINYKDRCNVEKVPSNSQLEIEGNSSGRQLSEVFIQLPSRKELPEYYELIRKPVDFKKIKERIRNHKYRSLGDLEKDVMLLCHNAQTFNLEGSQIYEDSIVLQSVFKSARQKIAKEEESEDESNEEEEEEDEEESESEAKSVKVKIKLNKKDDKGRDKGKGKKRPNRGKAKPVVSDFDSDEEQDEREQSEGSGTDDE
- procedure_text: In-cell Western screen of BRM degradation in SW1573 cells (Dmax and DC50)
- Format: cell-based
- applied_conditions: BRM degradation, SW1573 cells; read-out: DC50
result_type: DC50

Look at this compound and give its reported DC50. Cc1ncsc1-c1ccc([C@H](C)NC(=O)[C@@H]2C[C@@H](O)CN2C(=O)[C@@H](NC(=O)COCCOCCOCCOCCOCCOCCOCCOc2cc(N3C4CCC3CN(c3cc(-c5ccccc5O)nnc3N)C4)ccn2)C(C)(C)C)cc1
2.5 to 10 nM

Follow-up entry: Cc1ncsc1-c1ccc([C@H](C)NC(=O)[C@@H]2C[C@@H](O)CN2C(=O)[C@@H](c2cc(N3CCC4(CCN(C[C@H]5C[C@H](Oc6cc(N7C8CCC7CN(c7cc(-c9ccccc9O)nnc7N)C8)ccn6)C5)CC4)CC3)no2)C(C)C)cc1
< 2.5 nM

Also need Cc1ncsc1-c1ccc([C@H](C)NC(=O)[C@@H]2C[C@@H](O)CN2C(=O)[C@H](c2cc(OCCN3CCN(CCCCN4CCOC5(CCN(c6cc(-c7ccccc7O)nnc6N)CC5)C4)CC3)no2)C(C)C)cc1 , thanks.
> 30 nM

Please do the same for CC(C)C(C(=O)N1C[C@H](O)C[C@H]1C(=O)N[C@@H](C)c1ccc(C#N)cc1)c1cc(N2CCC(CN3CCC(O[C@H]4C[C@H](Oc5cc(N6C7CCC6CN(c6cc(-c8ccccc8O)nnc6N)C7)ccn5)C4)CC3)CC2)no1 (stereo partly shown) as well.
> 30 nM

Same lookup for Cc1ncsc1-c1ccc([C@H](C)NC(=O)[C@@H]2C[C@@H](O)CN2C(=O)[C@@H](c2cc(N3CCC(CN4CCC(O[C@H]5C[C@H](C#CC(C)N6CCOC7(CCN(c8cc(-c9ccccc9O)nnc8N)CC7)C6)C5)CC4)CC3)no2)C(C)C)cc1 (stereo partly shown) , please.
< 2.5 nM

Note, next up: Cc1ncsc1-c1ccc([C@@H](NC(=O)[C@@H]2C[C@@H](O)CN2C(=O)[C@H](c2cc(OCCN3CCN(CCOc4cc(N5C6CCC5CN(c5cc(-c7ccccc7O)nnc5N)C6)ccn4)CC3)no2)C(C)C)C(=O)N(C)C2CCC2)cc1
2.5 to 10 nM

Another compound to look at: Cc1ncsc1-c1ccc([C@H](COCC2CCOCC2)NC(=O)[C@@H]2C[C@@H](O)CN2C(=O)[C@@H](c2cc(OCCN3CCN(CCOc4cc(N5C6CCC5CN(c5cc(-c7ccccc7O)nnc5N)C6)ccn4)CC3)no2)C(C)C)cc1
2.5 to 10 nM

Also Cc1ncsc1-c1ccc([C@@H](NC(=O)[C@@H]2C[C@@H](O)CN2C(=O)[C@H](c2cc(OCCN3CCC(O[C@H]4C[C@H](Oc5cc(N6C7CCC6CN(c6cc(-c8ccccc8O)nnc6N)C7)ccn5)C4)CC3)no2)C(C)C)C(F)F)cc1 ?
2.5 to 10 nM

Input CCOC[C@H](NC(=O)[C@@H]1C[C@@H](O)CN1C(=O)[C@H](c1cc(OCCN2CCN(CCOc3cc(N4C5CCC4CN(c4cc(-c6ccccc6O)nnc4N)C5)ccn3)CC2)no1)C(C)C)c1ccc(-c2scnc2C)cc1
2.5 to 10 nM

Also check Cc1ncsc1-c1ccc([C@H](C)NC(=O)[C@@H]2C[C@@H](O)CN2C(=O)[C@@H](c2cc(N3CCC(F)(CN4CCC(O[C@H]5C[C@H](Oc6cc(N7C8CCC7CN(c7cc(-c9ccccc9O)nnc7N)C8)ccn6)C5)CC4)CC3)no2)C(C)C)cc1
< 2.5 nM

Would you kindly repeat that for Cc1ncsc1-c1ccc([C@H](C)NC(=O)[C@@H]2C[C@@H](O)CN2C(=O)[C@@H](c2cc(N3CCC(O)(CN4CCC(O[C@H]5C[C@H](Oc6cc(N7C8CCC7CN(c7cc(-c9ccccc9O)nnc7N)C8)ccn6)C5)CC4)CC3)no2)C(C)C)cc1 ?
< 2.5 nM

Lookup COc1cc(-c2scnc2C)ccc1CNC(=O)[C@@H]1C[C@@H](O)CN1C(=O)[C@H](c1cc(OCCN2CCC(O[C@H]3C[C@H](Oc4cc(N5C6CCC5CN(c5cc(-c7ccccc7O)nnc5N)C6)ccn4)C3)CC2)no1)C(C)C
> 30 nM

Consider next the compound Cc1ncsc1-c1ccc(CNC(=O)[C@@H]2C[C@@H](O)CN2C(=O)[C@H](c2cc(OCCOCCOCCOCCOc3cc(N4C5CCC4CN(c4cc(-c6ccccc6O)nnc4N)C5)ccn3)no2)C(C)C)cc1 in the same way.
10 to 30 nM

Now the compound Cc1ncsc1-c1ccc([C@H](C)NC(=O)[C@@H]2C[C@@H](O)CN2C(=O)[C@H](c2onc(OCCN3CCN(CCOc4cc(N5C6CCC5CN(c5cc(-c7ccccc7O)nnc5N)C6)ccn4)CC3)c2F)C(C)C)cc1
10 to 30 nM

Cc1ncsc1-c1ccc([C@H](C)NC(=O)[C@@H]2C[C@@H](O)CN2C(=O)[C@H](c2cc(CCCOCCOCCOCCn3cc(-c4cc(-c5ccccc5O)nnc4N)cn3)no2)C(C)C)cc1 , same question.
> 30 nM

Can you check Cc1ncsc1-c1ccc([C@H](COCC(C)C)NC(=O)[C@@H]2C[C@@H](O)CN2C(=O)[C@H](c2cc(OCCN3CCN(CCOc4cc(N5C6CCC5CN(c5cc(-c7ccccc7O)nnc5N)C6)ccn4)CC3)no2)C(C)C)cc1 next?
> 30 nM

These entries and their values trace back to patent US12539292B2.
